tested on: NCI/ADR-RES ovarian; test: NCI-60 one-dose screen, 48 h (100 = growth as untreated, 0 = no growth, -100 = all killed); details: 10 µM unless noted
The panel holds about 83,000 compounds, 20% with a hit somewhere; the sample as a whole holds those more often.
test readout: growth (%)
Give just the number in %; leave the unit off.

Return growth (reported value) for this compound: CCC(C)C1CCC(O)CC1 (stereo not drawn)
103

Return growth (reported value) for this compound: COC1OC(CO)C(OC)C(O)C1O (stereo not drawn)
93.5

Return growth (reported value) for this compound: CC(=O)OCC1OC(n2cnc3c(=S)nc(N)[nH]c32)C(OC(C)=O)C1OC(C)=O (stereo not drawn)
78.4

Return growth (reported value) for this compound: "O=C(Oc1ccccc1Cl)c1ccc(Cl)cc1Cl"
103

Return growth (reported value) for this compound: "Nc1ccc(F)c(Cl)c1F"
105

Return growth (reported value) for this compound: "Oc1cc2ccccc2c(-c2c(O)c(O)cc3ccccc23)c1O"
23

This collection of values is drawn from PubChem BioAssay (NCI).
